Every entry's value here was drawn from ChEMBL document CHEMBL4689842.

Answer each item with its documented Growth Rate.
Test system: Fibroblast
Assay: Incucyte cell viability with human fibroblast; also: filed as whole numbers so only -1 and 0 and 1 occur
Assay type: toxicity, cell-based
Conditions: 12 h, 10 µM, compound concentration 10 uM, replicate number 1, timepoint 12 hours

Inquiry: Request body: readout Growth Rate, system Fibroblast, query `CN1CCN(c2cnc3c(C4CCN(C(=O)c5ccc(OC(F)(F)F)cc5N)CC4)ncnc3c2)CC1` . Return the value.
Reply text: 1

Inquiry: Request body: readout Growth Rate, system Fibroblast, query `COc1cc(N2CCN(C)CC2)ccc1Nc1ncc2c(n1)N(C)c1ccccc1C(=O)N2C` . Return the value.
Reply text: 0

Inquiry: Request body: readout Growth Rate, system Fibroblast, query `CCCCCCCCCCCCCCCCOC[C@H](COP(=O)([O-])OCC[N+](C)(C)C)OC(C)=O` . Return the value.
Reply text: 1

Inquiry: Request body: readout Growth Rate, system Fibroblast, query `CNc1cc(Oc2cc(C(=O)Nc3cc(N4CCN(C)CC4)cc(C(F)(F)F)c3)ccc2C)ncn1` . Return the value.
Reply text: 0

Inquiry: Request body: readout Growth Rate, system Fibroblast, query `CC1(C)CCC(C)(C)c2cc(NC(=O)c3ccc(C(=O)O)cc3)ccc21` . Return the value.
Reply text: 0

Inquiry: Request body: readout Growth Rate, system Fibroblast, query `CC(=O)N1CCC(c2ccc(C(=O)NC(=N)N)cc2C(F)(F)F)CC1` . Return the value.
Reply text: 0

Inquiry: Request body: readout Growth Rate, system Fibroblast, query `Cl.O=C(O)Cc1cccc(OCCCN(Cc2cccc(C(F)(F)F)c2Cl)CC(c2ccccc2)c2ccccc2)c1` . Return the value.
Reply text: 1

Inquiry: Request body: readout Growth Rate, system Fibroblast, query `CNC(=O)c1ccc(Nc2nc(OC3CCCC3)c3c(-c4ccc5nc(C)oc5c4)c[nH]c3n2)c(OC)c1` . Return the value.
Reply text: 0

Inquiry: Request body: readout Growth Rate, system Fibroblast, query `O=C(c1ccc(C(=O)N2CCC(N3CCCC3)CC2)c(Nc2ccccc2)c1)N1CCC(N2CCCC2)CC1` . Return the value.
Reply text: 1

Inquiry: Request body: readout Growth Rate, system Fibroblast, query `COCC(=O)NC/C=C/c1ccc2ncnc(Nc3ccc(Oc4ccc(C)nc4)c(C)c3)c2c1` . Return the value.
Reply text: 1

Inquiry: Request body: readout Growth Rate, system Fibroblast, query `Cc1nc(NC(=O)N2CCC[C@H]2C(N)=O)sc1-c1ccnc(C(C)(C)C(F)(F)F)c1` . Return the value.
Reply text: 1

Inquiry: Request body: readout Growth Rate, system Fibroblast, query `COc1ccc(S(=O)(=O)N(CCO)c2ccccc2CN(C)C/C=C/c2ccc(Cl)cc2)cc1.O=P(O)(O)O` . Return the value.
Reply text: 0

Inquiry: Request body: readout Growth Rate, system Fibroblast, query `CCCc1c(OCCCOc2ccc(OCC(=O)O)cc2)ccc(C(C)=O)c1O` . Return the value.
Reply text: 1

Inquiry: Request body: readout Growth Rate, system Fibroblast, query `O=C1NC(=O)C(c2cnc3ccccn23)=C1c1cn2c3c(cc(F)cc13)CN(C(=O)N1CCCCC1)CC2` . Return the value.
Reply text: 0

Inquiry: Request body: readout Growth Rate, system Fibroblast, query CN1CCC(=C2c3ccccc3CC(=O)c3sccc32)CC1.O=C(O)/C=C/C(=O)O [KETOTIFEN FUMARATE] . Return the value.
Reply text: 0

Inquiry: Request body: readout Growth Rate, system Fibroblast, query `Cc1nc(-c2ccc(C(F)(F)F)cc2)sc1COc1ccc([C@H](CC(=O)O)c2ccon2)cc1` . Return the value.
Reply text: 1

Inquiry: Request body: readout Growth Rate, system Fibroblast, query `COC1CCN(c2cccc(-c3cc(NC(C)=O)nc(-n4nc(C)cc4C)n3)n2)CC1` . Return the value.
Reply text: 1
